Data origin, for the record: paper PMC9090415

Target: P. falciparum apicoplast DNA polymerase (Pf-apPOL) (Plasmodium falciparum)
Experiment: Fluorescence-based high-throughput DNA polymerase assay (molecular beacon), primary screen and dose-response
Assay type: biochemical
Conditions: DRC-2; 90'; conc 2.5
Text: The HT assay employs a molecular beacon, a stem-loop DNA template with a Cy3 dye and the Black Hole Quencher on the 3′ and 5′ ends of the DNA, respectively. Pf-apPOL concentration is based on a calculated absorptivity of ε280 = 56750 M^−1 cm^−1. […] To identify apPOL inhibitors we utilised our previously developed high-throughput DNA polymerase assay. […] The assay accurately recapitulates the kinetic behaviour of apPOL, as measured through more conventional low-throughput gel-based assays. […]
quantity name: % inhibition ApPOL 90' (%)

C=CCOc1c(Br)cc(Br)cc1/C=C1\SC(=N)NC1=O | 12
Cc1ccc(NC(=O)Cn2ccc3c(=O)[nH]ccc32)c(C)c1 | -5
Cc1ccc(N2NC(=O)/C(=C\c3ccc(O)c([N+](=O)[O-])c3)C2=O)cc1Cl | 9
O=c1nc(/C=C/c2ccc(Br)cc2)oc2ccccc12 | 8
C=CC1=C(C)c2cc3[nH]c(cc4nc(cc5[nH]c(cc1n2)c(C)c5CCC(=O)O)C(CCC(=O)O)=C4C)c(C)c3C=C | 40
Cc1cccc(NC(=O)Cn2ccc3c(=O)[nH]ccc32)c1C [Molecule 11, O=C(Cn1ccc2c1cc[nH]c2=O)Nc1cccc(c1C)C] | -1.29

* * *

molecular target: P. falciparum apicoplast DNA polymerase (Pf-apPOL) (Plasmodium falciparum, UniProt Q8ILY1); test: Fluorescence-based high-throughput DNA polymerase assay (molecular beacon), primary screen and dose-response; type: biochemical; settings: DRC-2; 180'; concentration 10;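 on % inhibition apPOL 180': test concentration in µM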
Sequence (Q8ILY1 entry or part of it): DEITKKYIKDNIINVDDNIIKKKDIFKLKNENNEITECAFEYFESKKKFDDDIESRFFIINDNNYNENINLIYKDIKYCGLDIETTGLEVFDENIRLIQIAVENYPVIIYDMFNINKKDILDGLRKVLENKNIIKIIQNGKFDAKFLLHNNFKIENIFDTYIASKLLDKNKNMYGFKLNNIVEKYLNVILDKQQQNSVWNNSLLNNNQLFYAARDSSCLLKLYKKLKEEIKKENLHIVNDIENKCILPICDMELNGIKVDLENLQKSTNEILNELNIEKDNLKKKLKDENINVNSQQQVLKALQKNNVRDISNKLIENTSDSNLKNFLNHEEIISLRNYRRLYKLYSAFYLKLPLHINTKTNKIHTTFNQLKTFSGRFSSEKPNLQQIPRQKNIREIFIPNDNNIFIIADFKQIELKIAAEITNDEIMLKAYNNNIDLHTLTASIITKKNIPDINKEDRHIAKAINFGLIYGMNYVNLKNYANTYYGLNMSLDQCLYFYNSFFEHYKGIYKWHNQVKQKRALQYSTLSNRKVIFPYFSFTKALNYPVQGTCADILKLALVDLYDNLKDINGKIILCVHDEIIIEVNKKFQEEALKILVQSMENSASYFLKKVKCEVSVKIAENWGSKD
quantity name: % inhibition apPOL 180' (%)

CCCCSc1nnc2c(n1)OC(c1ccc([N+](=O)[O-])o1)Nc1ccccc1-2 (stereo not drawn) [KU0065811] | 41
O=C(Nc1c2c(nn1-c1ccc(Oc3ccccc3)cc1)CSC2)c1ccco1 [KU0055927] | 35
CCCCc1ccc(NC(=O)CSc2nc(O)c(C#N)c(C3CCCCC3)n2)c(C)c1 [Molecule 8] | 9
CO/N=C(\C(=O)N[C@@H]1C(=O)N2C(C(=O)[O-])=C(CSc3nc(=O)c([O-])nn3C)CSC12)c1csc(N)n1.[Na+].[Na+] (stereo partly drawn) [Molecule 83] | -7
Cc1ccc(NC(=O)Cn2ccc3c(=O)[nH]ccc32)cc1F [Molecule 48, O=C(Cn1ccc2c1cc[nH]c2=O)Nc1ccc(c(c1)F)C] | 7
COc1ccc(-c2c(C(F)(F)F)nn3c(=O)cc(-c4cccc([N+](=O)[O-])c4)[nH]c23)cc1 [Molecule 16] | 23

* * *

target: P. falciparum apicoplast DNA polymerase (Pf-apPOL) (Plasmodium falciparum, UniProt Q8ILY1); experiment: Fluorescence-based high-throughput DNA polymerase assay (molecular beacon), primary screen and dose-response; format: biochemical; settings: DRC-1; 90'; concentration 5
Listing of recorded % inhibition Apol 90' by entry.
quantity name: % inhibition Apol 90'

Cl.NC(CO)C(=O)NNCc1ccc(O)c(O)c1O (stereo not shown) | -0.705%
O=C1N=C(Nc2cccc(Cl)c2Cl)S/C1=C\c1ccco1 [Molecule 3, O=C1N=C(S/C/1=C\c1ccco1)Nc1cccc(c1Cl)Cl] | 38.7366%
COc1ccc(C=C2Oc3c(ccc4c3CN(c3ccc5c(c3)OCO5)CO4)C2=O)cc1OC | 17.5134%
Cc1ccc(-n2nnc(C(=O)O)c2-c2ccccn2)c(F)c1 | 1.171%
O=C1N/C(=N/c2ccccc2Cl)S/C1=C/c1ccc([N+](=O)[O-])o1 | 16.2843%
CCCCc1ccc(NC(=O)CSc2nc(O)c(C#N)c(C3CCCCC3)n2)c(C)c1 | 14.1038%
O=[N+]([O-])c1cc2c(cc1CN1CCN(c3cccc(Cl)c3)CC1)OCO2 | 2.869%
COc1ccccc1CCC(=O)N1CCc2c(nc3cc(-c4ccccc4)[nH]n3c2=O)C1 | 9%
N#Cc1c(C2CCCCC2)nc(Sc2ccc(C(F)(F)F)cc2[N+](=O)[O-])[nH]c1=O | 20.2551%
O=C1NCCCn2cc(S(=O)(=O)Nc3ccccc3)cc21 | -0.5686%
COc1ccc(-c2n[nH]cc2Oc2ccc(Cl)cc2)c(O)c1 | 14.8627%
O=C(NCC1CCN(C2CCCC2)CC1)C(=O)NC1CCCC1 | 4.197%
O=[N+]([O-])c1cc2c(cc1CN1CCCCCC1)OCO2 | -0.8625%
O=c1cc(CN2CCCCC2)c2cc3c(cc2o1)OCO3 | 7.455%
CCOC(=O)C1=C2c3cc(OC)c(OC)cc3CC(C)(C)N2C(=O)C1=O | 7.311%
O=C(c1c[nH]c2ncccc12)N1CCCC1 [Molecule 63, O=C(c1c[nH]c2c1cccn2)N1CCCC1] | 3.06%
O=C(c1c[nH]c2ncccc12)N1CCCCCC1 [Molecule 51, O=C(c1c[nH]c2c1cccn2)N1CCCCCC1] | 0.544%
CCC(C)NC(=O)c1cc(NC(C)=O)cc2nc(C)ccc12 (stereo not shown) | 3.672%
Cc1cc(C)c2c(O)nc(SCC(=O)c3ccc(O)c(O)c3)nc2n1 | 64.0677%
N#CC(=NNc1cc(C(F)(F)F)cc(C(F)(F)F)c1)C(=O)c1ccco1 | 15.4083%
NS(=O)(=O)c1ccc(NC(=O)c2ccc(N3C(=O)CCC3=O)cc2)cc1 | 7.062%
CC(C)(C)c1cc(C(=O)C(C#N)=NNc2cccc(Cl)c2)no1 | 31.5705%
